- test.target: MAP kinase p38 (Homo sapiens, UniProt O15264+Q15759+Q16539+P53778)
- test.summary: Inhibitory activity against TNF-alpha release in PBM cells
- Format: functional, cell-based
Reported IC50 by item:

smiles.record: CSc1nc(-c2ccc(F)cc2)c(-c2ccncc2)[nH]1
IC50 / µM: 0.9

smiles.record: CSc1nc(-c2ccc(F)cc2)c(-c2ccnc(NCc3ccc(Cl)cc3)c2)[nH]1
IC50 / µM: 0.5

smiles.record: CSc1nc(-c2ccnc(O)c2)c(-c2ccc(F)cc2)n1C
IC50 / µM: 31.3

smiles.record: COc1cc(-c2[nH]c(SC)nc2-c2ccc(F)cc2)ccn1
IC50 / µM: 1.9

smiles.record: Fc1ccc(-c2nc(SCc3ccccc3)[nH]c2-c2ccnc(Cl)c2)cc1
IC50 / µM: 60

smiles.record: Fc1ccc(-c2nc(SCc3ccccc3)[nH]c2-c2ccnc(F)c2)cc1
IC50 / µM: 40.5

smiles.record: COc1ccc(CNc2cc(-c3[nH]c(SC)nc3-c3ccc(F)cc3)ccn2)cc1
IC50 / µM: 0.64

smiles.record: CSc1nc(-c2ccc(F)cc2)c(-c2ccnc(NC(C)=O)c2)n1C1CC(C)(C)NC(C)(C)C1
IC50 / µM: 4.5

smiles.record: COc1ccc(C(=O)Nc2cc(-c3c(-c4ccc(F)cc4)nc(SC)n3C)ccn2)cc1
IC50 / µM: 0.64

smiles.record: CSc1nc(-c2ccc(F)cc2)c(-c2ccnc(O)c2)[nH]1
IC50 / µM: 3.1

----------
- test.target: MAP kinase p38 (Homo sapiens, UniProt O15264+Q15759+Q16539+P53778)
- test.summary: Inhibitory activity against induction of IL-1-beta release in PBMCs
- Format: functional
Note that class boundaries on IC50 are low = under 400 nM, moderate = from 400 nM up to 800 nM, high = 800 nM and over

smiles.record: CSc1nc(-c2ccc(F)cc2)c(-c2ccncc2)n1C1CC(C)(C)NC(C)(C)C1
group: high

smiles.record: CSc1nc(-c2ccnc(O)c2)c(-c2ccc(F)cc2)n1C
group: high

smiles.record: CCCn1c(SC)nc(-c2ccc(F)cc2)c1-c1ccnc(NCC)c1
group: low

smiles.record: Fc1ccc(-c2nc(SCc3ccccc3)[nH]c2-c2ccnc(Cl)c2)cc1
group: high

smiles.record: COc1ccc(C(=O)Nc2cc(-c3c(-c4ccc(F)cc4)nc(SC)n3C)ccn2)cc1
group: moderate

smiles.record: CCCn1c(SC)nc(-c2ccc(F)cc2)c1-c1ccncc1
group: low

smiles.record: Fc1ccc(-c2nc(SCc3ccccc3)[nH]c2-c2ccnc(F)c2)cc1
group: high

smiles.record: CSc1nc(-c2ccc(F)cc2)c(-c2ccnc(N)c2)n1C
group: low

smiles.record: CSc1nc(-c2ccc(F)cc2)c(-c2ccnc(NCc3ccc(C)cc3)c2)[nH]1
group: low

smiles.record: CCNc1cc(-c2c(-c3ccc(F)cc3)nc(SC)n2C2CC(C)(C)NC(C)(C)C2)ccn1
group: moderate

----------
Reported inhibition at 10 µM by item:
- test.target: CYP2C19 (Homo sapiens, UniProt P33261)
- Sequence (P33261 whole entry): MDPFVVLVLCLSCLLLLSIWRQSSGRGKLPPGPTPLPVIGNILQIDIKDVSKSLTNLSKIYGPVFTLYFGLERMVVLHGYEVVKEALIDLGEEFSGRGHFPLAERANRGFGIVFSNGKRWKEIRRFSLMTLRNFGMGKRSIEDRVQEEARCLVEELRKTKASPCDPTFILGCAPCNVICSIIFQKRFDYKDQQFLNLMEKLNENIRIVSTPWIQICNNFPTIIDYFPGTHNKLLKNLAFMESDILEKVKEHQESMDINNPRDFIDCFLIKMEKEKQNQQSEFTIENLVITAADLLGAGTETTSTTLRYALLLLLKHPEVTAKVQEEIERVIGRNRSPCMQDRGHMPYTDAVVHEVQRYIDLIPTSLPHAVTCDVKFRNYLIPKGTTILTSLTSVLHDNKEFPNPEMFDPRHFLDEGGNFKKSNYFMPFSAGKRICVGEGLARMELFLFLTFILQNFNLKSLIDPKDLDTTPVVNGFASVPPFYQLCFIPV
- test.summary: Inhibition of Cytochrome P450 2C19 at 10 uM
- Type: ADME
measured.attribute: inhibition at 10 µM (%)

molecule: CSc1nc(-c2ccc(F)cc2)c(-c2ccnc(NC(C)c3ccccc3)c2)n1C (stereo not given)
output.unit: %
measured: 90.9

molecule: CSc1nc(-c2ccc(F)cc2)c(-c2ccncc2)[nH]1
output.unit: %
measured: 79.5

molecule: CSc1nc(-c2ccc(F)cc2)c(-c2ccncc2)n1C1CC(C)(C)NC(C)(C)C1
output.unit: %
measured: 15.3

molecule: C[S+]([O-])c1ccc(-c2nc(-c3ccncc3)c(-c3ccc(F)cc3)[nH]2)cc1 (stereo not given)
output.unit: %
measured: 85

molecule: CSc1nc(-c2ccc(F)cc2)c(-c2ccnc(NC(C)c3ccccc3)c2)[nH]1 (stereo not given)
output.unit: %
measured: 83.5

molecule: C[S+]([O-])c1ccc(CSc2nc(-c3ccc(F)cc3)c(-c3ccncc3)[nH]2)cc1 (stereo not given)
output.unit: %
measured: 73.6

molecule: CSc1nc(-c2ccc(F)cc2)c(-c2ccnc(NC(C)=O)c2)n1C
output.unit: %
measured: 20.3

molecule: CSc1nc(-c2ccc(F)cc2)c(-c2ccnc(NC(C)=O)c2)n1C1CC(C)(C)NC(C)(C)C1
output.unit: %
measured: 7.6

molecule: CSc1nc(-c2ccc(F)cc2)c(-c2ccnc(OC(C)C)c2)[nH]1
output.unit: %
measured: 62.6

molecule: CSc1nc(-c2ccc(F)cc2)c(-c2ccnc(Cl)c2)[nH]1
output.unit: %
measured: 41.4
